- Test system: BT-20
- Assay remarks: relative cell number vs DMSO control (72 h) (% of DMSO); higher = less growth inhibition (more cells)
- Experimental setup: sgRNA knockout: sgNT, 1000 nM
Think of 80 as a floor: if relative cell number stands on it or above, it is criterion met; beneath it, criterion not met.

Solved entries (count: 5):
- Compound: "COc1cc([C@@H]2c3cc4c(cc3[C@@H](O[C@@H]3O[C@@H]5CO[C@@H](C)O[C@H]5[C@H](O)[C@H]3O)[C@H]3COC(=O)[C@H]23)OCO4)cc(OC)c1O [Etoposide]"
  Answer label: "criterion not met"
- Compound: "CC1(C)CCC(c2ccc(Cl)cc2)=C(CN2CCN(c3ccc(C(=O)NS(=O)(=O)c4ccc(N[C@H](CCN5CCOCC5)CSc5ccccc5)c(S(=O)(=O)C(F)(F)F)c4)cc3)CC2)C1"
  Answer label: "criterion met"
- Compound: "COc1cc2nccc(Oc3ccc(NC(=O)Nc4cc(C)on4)c(Cl)c3)c2cc1OC"
  Answer label: "criterion met"
- Compound: "Cn1nnc2c(C(N)=O)ncn2c1=O [Temozolomide]"
  Answer label: "criterion met"
- Compound: "C=C(c1ccc(C(=O)O)cc1)c1cc2c(cc1C)C(C)(C)CCC2(C)C"
  Answer label: "criterion met"

Query :: Please tell me: is the compound CCC(C)(C)C(=O)O[C@H]1C[C@@H](C)C=C2C=C[C@H](C)[C@H](CC[C@@H]3C[C@@H](O)CC(=O)O3)[C@H]21 at or over 80 in terms of relative cell number?
Result :: criterion met

Query :: Next: CC(C)(C)c1ccc(S(=O)(=O)NCc2ccc(C(=O)Nc3cccnc3)cc2)cc1
Result :: criterion met

Query :: Now give it for Cc1cn(-c2cc(NC(=O)c3ccc(C)c(Nc4nccc(-c5cccnc5)n4)c3)cc(C(F)(F)F)c2)cn1 too.
Result :: criterion met

Query :: What about this compound? CN1CCc2c(c3ccccc3n2Cc2ccc(C(=O)NO)cc2)C1
Result :: criterion met

* * *

Form field: relative cell number (one value per entry).
- System: BT-20
- Assay remarks: relative cell number vs DMSO control (72 h) (% of DMSO); higher = less growth inhibition (more cells)
- Experimental setup: sgRNA knockout: sgNT, 1000 nM

Below, each entry is followed by its recorded relative cell number result.
- Compound: "Nc1nc(Cl)nc2c1ncn2[C@@H]1O[C@H](CO)[C@@H](O)[C@@H]1F"
  relative cell number: 27
- Compound: "C=C(C)[C@@H]1CC[C@]2(C(=O)O)CC[C@]3(C)[C@H](CC[C@@H]4[C@@]5(C)CC[C@H](O)C(C)(C)[C@@H]5CC[C@]43C)[C@@H]12"
  relative cell number: 86.4

Query :: Could you share which relative cell number value was measured for CC(=O)O[C@H]1C(=O)[C@@]2(C)[C@H]([C@H](OC(=O)c3ccccc3)[C@]3(O)C[C@H](OC(=O)[C@H](O)[C@@H](NC(=O)c4ccccc4)c4ccccc4)C(C)=C1C3(C)C)[C@]1(OC(C)=O)CO[C@@H]1C[C@@H]2O ?
Result :: 25.7

Query :: What do you get for O=C(Nc1ccc([N+](=O)[O-])cc1Cl)c1cc(Cl)ccc1O [Niclosamide] ?
Result :: 98.5

* * *

Quick reference for relative cell number among some compounds
- System: SKBR3
- Assay remarks: relative cell number vs DMSO control (72 h) (% of DMSO); higher = less growth inhibition (more cells)
- Experimental setup: sgRNA knockout: sgNT, 100 nM
Output: the number by itself.

- Compound: "O=C(CCc1ccc(O)cc1)c1c(O)cc(O)cc1O"
  relative cell number: 76.5

Query :: Lab request: please report relative cell number under test system SKBR3 for CC1(C)CCC(c2ccc(Cl)cc2)=C(CN2CCN(c3ccc(C(=O)NS(=O)(=O)c4ccc(N[C@H](CCN5CCOCC5)CSc5ccccc5)c(S(=O)(=O)C(F)(F)F)c4)cc3)CC2)C1
Result :: 117

Query :: Please give the result for CCC(C)SSc1ncc[nH]1 (centres undefined) too.
Result :: 95.5

Query :: Now give it for CCOC(=O)CCNc1cc(N2CCc3ccccc3CC2)nc(-c2ccccn2)n1 too.
Result :: 104

Cited source for all entries: the supplement of paper PMC7661543
